# EC50 per record follows
TARGET: human GPR40 (Homo sapiens)
Sequence (O14842 whole entry): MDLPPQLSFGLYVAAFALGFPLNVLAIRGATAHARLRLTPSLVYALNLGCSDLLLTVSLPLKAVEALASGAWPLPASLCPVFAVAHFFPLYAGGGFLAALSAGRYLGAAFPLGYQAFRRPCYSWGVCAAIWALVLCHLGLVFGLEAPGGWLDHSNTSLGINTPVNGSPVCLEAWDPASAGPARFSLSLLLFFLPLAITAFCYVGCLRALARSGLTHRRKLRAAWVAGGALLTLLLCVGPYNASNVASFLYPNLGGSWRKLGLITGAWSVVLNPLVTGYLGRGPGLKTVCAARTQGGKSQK
ASSAY COMMENT: GPR40 calcium flux assay, human GPR40
MEASUREMENT PARAMETERS: HEK293 cells stably expressing GPR40; table does not say human or rat

Reference set, count: 3
MOLECULE	REPORTED RESULT
Cc1c(CCC(=O)O)ccc(OCC2=C(c3ccc(Cl)cc3)CCCC2)c1C	> 5 µM
O=C(O)CCc1ccc(OCC2=C(c3ccc(F)c(F)c3)CCC2)cc1	> 5 µM
O=C(O)CCc1cc(F)c(OCC2=C(c3ccc(Cl)cc3)CCC(F)(F)C2)c(F)c1	> 5 µM

Query block: Find the recorded EC50 belonging to O=C(O)CCc1ccc(OCC2=C(c3cc(Cl)ccc3F)CCC2)cc1C(F)(F)F and report it.
Result block: 0.137 µM
